# study-system: Cbl-B (Homo sapiens)
# Construct: MSD-Based Assay for Degradation of Cbl-B in THP-1 Cells; endogenous in cells; host or cells: THP-1 (title) / Jurkat (protocol text)
# Sequence (Q13191 whole entry): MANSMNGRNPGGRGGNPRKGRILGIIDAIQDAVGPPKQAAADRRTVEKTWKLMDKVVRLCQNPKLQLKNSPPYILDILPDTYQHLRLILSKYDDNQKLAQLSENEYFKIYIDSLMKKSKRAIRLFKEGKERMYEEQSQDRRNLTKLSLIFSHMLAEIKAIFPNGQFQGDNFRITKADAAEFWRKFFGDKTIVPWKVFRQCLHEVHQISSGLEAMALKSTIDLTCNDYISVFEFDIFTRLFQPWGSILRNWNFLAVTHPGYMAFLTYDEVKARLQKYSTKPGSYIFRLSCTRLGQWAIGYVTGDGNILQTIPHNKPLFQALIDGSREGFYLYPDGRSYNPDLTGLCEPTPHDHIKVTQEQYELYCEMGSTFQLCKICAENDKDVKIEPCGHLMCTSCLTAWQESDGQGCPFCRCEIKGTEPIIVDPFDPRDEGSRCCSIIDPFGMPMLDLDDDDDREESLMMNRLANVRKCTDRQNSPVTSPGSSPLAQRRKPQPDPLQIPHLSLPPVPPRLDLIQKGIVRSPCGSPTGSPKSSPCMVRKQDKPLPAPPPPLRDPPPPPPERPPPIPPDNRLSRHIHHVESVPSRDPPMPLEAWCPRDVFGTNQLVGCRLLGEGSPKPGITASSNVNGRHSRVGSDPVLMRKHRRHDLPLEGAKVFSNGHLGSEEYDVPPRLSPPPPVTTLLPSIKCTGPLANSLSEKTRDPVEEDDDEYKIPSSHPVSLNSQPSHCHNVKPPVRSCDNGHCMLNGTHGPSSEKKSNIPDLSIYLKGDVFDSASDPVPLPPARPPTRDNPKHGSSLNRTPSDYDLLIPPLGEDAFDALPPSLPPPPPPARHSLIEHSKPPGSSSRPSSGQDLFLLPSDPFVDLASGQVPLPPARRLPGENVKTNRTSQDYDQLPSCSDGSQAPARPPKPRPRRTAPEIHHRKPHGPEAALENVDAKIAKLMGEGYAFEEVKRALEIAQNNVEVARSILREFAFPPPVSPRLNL
# assay-overview: MSD-based assay for degradation of Cbl-B in THP-1 cells
# Assay type: cell-based
# test-context: Cbl-B degradation, Jurkat cells seeded (heading: THP-1 cells), 24 hours incubation, MSD readout; read-out: Dmax
# Description: MSD-Based Assay for Degradation of Cbl-B in THP-1 Cells Assay plates were then shaken at 600 rpm for 5 minutes, followed by incubation for 24 hours in the 37° C. TC incubator. […] Cell debris was then spun down at maximum speed (about 3200 g) for 30 min and lysates frozen in the −80° C. fridge. […] Plates were again washed 3× with 150 ul/well of 1×TBST, followed by addition of 1×MSD reading buffer (MSD, R92TC-2), 150 ul/well, diluted from 4× with water. […]
metric: Dmax

Cn1cnnc1[C@@H](c1cccc(-n2cc3c(C(F)(F)F)cc(CN4CCC(OCCOCc5ccc(CN6CCN(c7ccc8c(c7)CN([C@@H]7CCC(=O)NC7=O)C8=O)CC6)cc5)CC4)cn3c2=O)c1)C1CCC1 (single isomer, unassigned) [Compound 87] :: 30 to 50%
Cn1cnnc1[C@@H](c1cccc(-n2cc3c(C(F)(F)F)cc(CN4CCC(OCCOCc5ccc(CN6CCN(c7ccc8c(c7)CN([C@H]7CCC(=O)NC7=O)C8=O)CC6)cc5)CC4)cn3c2=O)c1)C1CCC1 (single isomer, unassigned) [Compound 88] :: > 70%
Cn1cnnc1CC1(c2cccc(-n3cc4c(C(F)(F)F)cc(CN5CCC(OCc6ccc(N7CCN(c8ccc9c(c8)CN([C@H]8CCC(=O)NC8=O)C9=O)CC7)cc6)CC5)cn4c3=O)c2)COC1 (single isomer, unassigned) [Compound 250] :: 50 to 70%
CN(C(=O)c1ccc(N2CCN(c3ccc4c(c3)CN([C@H]3CCC(=O)NC3=O)C4=O)CC2)cc1)C1CCN(Cc2cc(C(F)(F)F)c3cn(-c4cccc([C@H](c5nncn5C)C5CCC5)c4)c(=O)n3c2)CC1 [Compound 138] :: < 30%

Problem: Param item = CN(CC1CCN(Cc2cc(C(F)(F)F)c3cn(-c4cccc([C@H](c5nncn5C)C5CCC5)c4)c(=O)n3c2)CC1)C(=O)c1ccc(N2CCN(c3ccc4c(c3)CN([C@H]3CCC(=O)NC3=O)C4=O)CC2)cc1 (single isomer, unassigned) [Compound 118] ; retrieve measured Dmax.
Solution: > 70%

Problem: Reported Dmax, molecule CN(CCN(C)C(=O)c1cc(C(F)(F)F)c2cn(-c3cccc([C@H](c4nncn4C)C4CCC4)c3)c(=O)n2c1)C(=O)c1ccc(C2CCN(c3ccc4c(c3)CN([C@H]3CCC(=O)NC3=O)C4=O)CC2)cc1 (single isomer, unassigned) [Compound 198] : ____
Solution: < 30%

Problem: Value lookup for Dmax; key = Cn1cnnc1[C@@H](c1cccc(-n2cc3c(C(F)(F)F)cc(CN4CCN(c5ccc(C(=O)N6CCC(C7CCN(c8ccc9c(c8)CN([C@@H]8CCC(=O)NC8=O)C9=O)CC7)CC6)cc5)CC4)cn3c2=O)c1)C1CCC1 (single isomer, unassigned) [Compound 209]
Solution: < 30%

Problem: GET /values?readout=Dmax&item= CO[C@H]1C[C@](c2cccc(-n3cc4c(C(F)(F)F)cc(CN5CCC(OCCN6CCC(CN7CCN(c8ccc9c(c8)CN([C@H]8CCC(=O)NC8=O)C9=O)CC7)CC6)CC5)cn4c3=O)c2)(c2nncn2C)C1 [Compound 70]
Solution: 50 to 70%

Data origin: patent US20250340552A1
